TEST_SYSTEM: T1, VEGFR-3-Fc (UniProt P35916 25-328)
T1 construct: domain: first three Ig domains; conditioned supernatant of 293T cells; also called VEGFR-3-Fc fusion protein; not shown: Fc fragment of the pIg vector
T1 sequence (looked up): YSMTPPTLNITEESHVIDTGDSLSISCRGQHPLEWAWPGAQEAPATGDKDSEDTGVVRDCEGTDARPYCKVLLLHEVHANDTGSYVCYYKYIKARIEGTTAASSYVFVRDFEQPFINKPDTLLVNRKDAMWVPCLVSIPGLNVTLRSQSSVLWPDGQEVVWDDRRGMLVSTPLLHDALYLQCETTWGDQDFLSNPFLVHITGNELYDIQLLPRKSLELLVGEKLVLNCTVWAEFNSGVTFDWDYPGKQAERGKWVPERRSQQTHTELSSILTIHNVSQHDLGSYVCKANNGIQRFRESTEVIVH
PROTOCOL_DESCRIPTION: receptor-Fc IP
QUANTITY_KIND: binding result

[
  {
    "BINDER": "82-7 (ligand, clone entry) AHYNTEILKFMDVYQRSYCHPIETLVDIFQEFGVATNTFFKPPCVSVYRCGGCCNSEGLQCVPTEESNITMQIMRIKPHQGQHIGEMSFANHTSCRCMSKLDLVF",
    "EXPERIMENTAL_RESULT": "binds"
  }
]

Recorded values, source patent US20080058263A1.
